- Target desc: recombinant mFTase (affinity purified rat FPTase) (Rattus norvegicus, UniProt Q02293+Q04631)
- Measurement notes: FTase scintillation proximity assay
- Measurement parameters: recombinant mFTase; tritiated FPP 0.12 μM, peptide 0.1 μM
Mark yes for IC50 under 0.2 µM, no if at or over.

Worked examples, 5 molecules total:
- CC(C)=CCC/C(C)=C/CC/C(=C/COP(=O)(O)OP(=O)(O)O)C(C)(C)C: yes
- CC(C)=CCC/C(C)=C/CC/C(=C/COP(=O)(O)OP(=O)(O)O)c1ccccc1: no
- C=CC/C(=C\COP(=O)(O)OP(=O)(O)O)CC/C=C(\C)CC/C=C(\C)CCC=C(C)C: no
- C=C/C(=C\COP(=O)(O)OP(=O)(O)O)CC/C=C(\C)CCC=C(C)C: yes
- C=CC/C(=C\COP(=O)(O)OP(=O)(O)O)CC/C=C(\C)CCC=C(C)C: yes

Let's switch to this molecule now.
Answer whether the molecule CC/C(=C\COP(=O)(O)OP(=O)(O)O)CC/C=C(\C)CCC=C(C)C has IC50 strictly less than 0.2 µM
no

From: patent US6586461B1
